Data provenance: patent US20230172204A1

# Tested on: Phakopsora pachyrhizi (F129L)
# measurement_protocol: Protective control of soybean rust on soybeans (PHAKPA P2)
# Assay type: in vivo
# run_conditions: protective P2, 16 ppm, soybean rust F129L
measure_name: % PHAKPA (F129L) Disease level P2 at 16 ppm

compound_structure_string: CO/N=C(/C(=O)OC)c1cccc(C)c1CO/N=C(\C)c1cc(F)c(F)cc1C(F)(F)F
system_tested: Phakopsora pachyrhizi (F129L)
value: 40%

Query the reported % PHAKPA (F129L) Disease level P2 at 16 ppm for Phakopsora pachyrhizi (F129L); item: CNC(=O)/C(=N/OC)c1cccc(C)c1CO/N=C(\C)c1cccc(C(C)(C)C)c1
0%

Record lookup: for Phakopsora pachyrhizi (F129L), what % PHAKPA (F129L) Disease level P2 at 16 ppm belongs to CNC(=O)/C(=N/OC)c1cccc(C)c1CO/N=C(\C)c1c(F)cc(F)cc1C(F)(F)F ?
1%

Give recorded % PHAKPA (F129L) Disease level P2 at 16 ppm with Phakopsora pachyrhizi (F129L) for the following compound: CNC(=O)/C(=N/OC)c1cccc(OC)c1CO/N=C(\C)c1cccc(C(F)(F)F)c1
2%
